- target_or_test_system: Protein tyrosine phosphatase type IVA 3 (Homo sapiens)
- Sequence (O75365 whole entry): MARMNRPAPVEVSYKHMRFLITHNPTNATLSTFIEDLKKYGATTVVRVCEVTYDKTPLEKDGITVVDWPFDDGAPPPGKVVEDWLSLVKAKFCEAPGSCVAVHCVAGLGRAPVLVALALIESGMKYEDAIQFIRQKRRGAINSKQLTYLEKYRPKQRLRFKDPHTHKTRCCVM
recorded_endpoint: IC50 (µM)
Answers are plain numbers, in µM.

IC50 of Cc1cc(O)c2c(c1)C(=O)c1cc(O)cc(O)c1C2=O on Protein tyrosine phosphatase type IVA 3 (Homo sapiens)?
3.5
